Molecular target: natural TetR (Escherichia coli)
Construct: made in house
Assay: Surface plasmon resonance affinity, natural TetR
Type: binding
Details: TetR without Mg2+, SPR
# koff (dissociation rate constant) values compiled below
Answer with the number, then the unit.

[[record]]
chemical_structure = "CN(C)c1cc(NC(=O)CNC(C)(C)C)c(O)c2c1C[C@H]1C[C@H]3[C@H](N(C)C)C(O)=C(C(N)=O)C(=O)[C@@]3(O)C(O)=C1C2=O"
result = "1.04e-05 s⁻¹"

[[record]]
chemical_structure = "CN(C)[C@@H]1C(O)=C(C(N)=O)C(=O)[C@@]2(O)C(O)=C3C(=O)c4c(O)cccc4[C@@](C)(O)[C@H]3[C@H](O)[C@@H]12"
result = "0.00199 s⁻¹"

[[record]]
chemical_structure = "CN(C)[C@@H]1C(O)=C(C(N)=O)C(=O)[C@@]2(O)C(O)=C3C(=O)c4c(O)cccc4C[C@H]3C[C@@H]12"
result = "0.000127 s⁻¹"

[[record]]
chemical_structure = "CN(C)[C@@H]1C(O)=C(C(=O)NCNCCCC[C@H](N)C(=O)O)C(=O)[C@@]2(O)C(O)=C3C(=O)c4c(O)cccc4[C@@](C)(O)[C@H]3C[C@@H]12"
result = "0.00116 s⁻¹"

[[record]]
chemical_structure = "C=C1c2cccc(O)c2C(=O)C2=C(O)[C@]3(O)C(=O)C(C(N)=O)=C(O)[C@@H](N(C)C)[C@@H]3[C@@H](O)[C@H]12"
result = "0.00016 s⁻¹"

[[record]]
chemical_structure = "CN(C)[C@@H]1C(O)=C(C(N)=O)C(=O)[C@@]2(O)C(O)=C3C(=O)c4c(O)ccc(Cl)c4[C@@H](O)[C@H]3C[C@@H]12"
result = "0.000206 s⁻¹"


Sure, the documented koff (dissociation rate constant) for CN(C)[C@@H]1C(O)=C(C(N)=O)C(=O)[C@@]2(O)C(O)=C3C(=O)c4c(O)cccc4[C@@](C)(O)[C@H]3C[C@@H]12 is 0.00156 s⁻¹

Sure, the documented koff (dissociation rate constant) for CN(C)[C@@H]1C(O)=C(C(N)=O)C(=O)[C@@]2(O)C(O)=C3C(=O)c4c(O)ccc(Cl)c4[C@@](C)(O)[C@H]3C[C@@H]12 is 0.0148 s⁻¹

Sure, the documented koff (dissociation rate constant) for CN(C)c1ccc(O)c2c1C[C@H]1C[C@H]3[C@H](N(C)C)C(O)=C(C(N)=O)C(=O)[C@@]3(O)C(O)=C1C2=O is 0.000507 s⁻¹

Sure, the documented koff (dissociation rate constant) for C[C@H]1c2cccc(O)c2C(=O)C2=C(O)[C@]3(O)C(=O)C(C(N)=O)=C(O)[C@@H](N(C)C)[C@@H]3[C@@H](O)[C@@H]21 is 0.00113 s⁻¹

---

Target: TetR mutant (Escherichia coli, UniProt P04483, H139W)
Construct: made in house; host or cells: E. coli Rosetta-gami(BL21), vector pET28a
Test: Fluorescence polarization assay (FPA) with TetR mutant
Format: binding
Details: TetR mutant, FPA, FA-MC tracer, drugs diluted with blank milk extract
property measured: LOD (limit of detection, IC10) (ng/mL)
A number alone suffices; assume ng/mL.

Assay TetR mutant (Escherichia coli, UniProt P04483, H139W), sample CN(C)[C@@H]1C(O)=C(C(N)=O)C(=O)[C@@]2(O)C(O)=C3C(=O)c4c(O)ccc(Cl)c4[C@@](C)(O)[C@H]3C[C@@H]12 [CTC, chlortetracycline] , LOD (limit of detection, IC10) read: 1.4

Assay TetR mutant (Escherichia coli, UniProt P04483, H139W), sample C[C@H]1c2cccc(O)c2C(=O)C2=C(O)[C@]3(O)C(=O)C(C(N)=O)=C(O)[C@@H](N(C)C)[C@@H]3[C@@H](O)[C@@H]21 [DC, doxycycline] , LOD (limit of detection, IC10) read: 1.0

Assay TetR mutant (Escherichia coli, UniProt P04483, H139W), sample CN(C)c1ccc(O)c2c1C[C@H]1C[C@H]3[C@H](N(C)C)C(O)=C(C(N)=O)C(=O)[C@@]3(O)C(O)=C1C2=O [MC, minocycline] , LOD (limit of detection, IC10) read: 0.5

Assay TetR mutant (Escherichia coli, UniProt P04483, H139W), sample CN(C)[C@@H]1C(O)=C(C(N)=O)C(=O)[C@@]2(O)C(O)=C3C(=O)c4c(O)cccc4[C@@](C)(O)[C@H]3C[C@@H]12 [TC, tetracycline] , LOD (limit of detection, IC10) read: 1.3

Assay TetR mutant (Escherichia coli, UniProt P04483, H139W), sample CN(C)[C@@H]1C(O)=C(C(N)=O)C(=O)[C@@]2(O)C(O)=C3C(=O)c4c(O)cccc4[C@@](C)(O)[C@H]3[C@H](O)[C@@H]12 [OTC, oxytetracycline] , LOD (limit of detection, IC10) read: 0.8

Assay TetR mutant (Escherichia coli, UniProt P04483, H139W), sample CN(C)[C@@H]1C(O)=C(C(=O)NCNCCCC[C@H](N)C(=O)O)C(=O)[C@@]2(O)C(O)=C3C(=O)c4c(O)cccc4[C@@](C)(O)[C@H]3C[C@@H]12 [LMC, Lymecycline] , LOD (limit of detection, IC10) read: 1.0

Assay TetR mutant (Escherichia coli, UniProt P04483, H139W), sample CN(C)[C@@H]1C(O)=C(C(N)=O)C(=O)[C@@]2(O)C(O)=C3C(=O)c4c(O)cccc4C[C@H]3C[C@@H]12 [SC, Sancycline] , LOD (limit of detection, IC10) read: 0.7

Assay TetR mutant (Escherichia coli, UniProt P04483, H139W), sample CN(C)c1cc(NC(=O)CNC(C)(C)C)c(O)c2c1C[C@H]1C[C@H]3[C@H](N(C)C)C(O)=C(C(N)=O)C(=O)[C@@]3(O)C(O)=C1C2=O [TIC, tigecycline] , LOD (limit of detection, IC10) read: 0.4

Assay TetR mutant (Escherichia coli, UniProt P04483, H139W), sample C=C1c2cccc(O)c2C(=O)C2=C(O)[C@]3(O)C(=O)C(C(N)=O)=C(O)[C@@H](N(C)C)[C@@H]3[C@@H](O)[C@H]12 [MTC, Methacycline] , LOD (limit of detection, IC10) read: 1.5

Assay TetR mutant (Escherichia coli, UniProt P04483, H139W), sample CN(C)[C@@H]1C(O)=C(C(N)=O)C(=O)[C@@]2(O)C(O)=C3C(=O)c4c(O)ccc(Cl)c4[C@@H](O)[C@H]3C[C@@H]12 [DMC, demeclocycline] , LOD (limit of detection, IC10) read: 0.4

---

Target: TetR mutant (Escherichia coli, UniProt P04483, H139W)
Construct: made in house; host or cells: E. coli Rosetta-gami(BL21), vector pET28a
Experiment: Surface plasmon resonance affinity, TetR mutant
Format: binding
Conditions: KD (equilibrium dissociation constant, Kd/Ka), TetR mutant without Mg2+, SPR
property measured: pKd
Note: pKd values are expressed as the negative base-10 logarithm of concentration in M.

A selection of reference data follows.
[[record]]
compound = "CN(C)[C@@H]1C(O)=C(C(N)=O)C(=O)[C@@]2(O)C(O)=C3C(=O)c4c(O)cccc4C[C@H]3C[C@@H]12 [SC, Sancycline]"
number = 9.23

[[record]]
compound = "CN(C)[C@@H]1C(O)=C(C(N)=O)C(=O)[C@@]2(O)C(O)=C3C(=O)c4c(O)ccc(Cl)c4[C@@](C)(O)[C@H]3C[C@@H]12 [CTC, chlortetracycline]"
number = 7.79

[[record]]
compound = "CN(C)[C@@H]1C(O)=C(C(=O)NCNCCCC[C@H](N)C(=O)O)C(=O)[C@@]2(O)C(O)=C3C(=O)c4c(O)cccc4[C@@](C)(O)[C@H]3C[C@@H]12 [LMC, Lymecycline]"
number = 8.60

[[record]]
compound = "CN(C)[C@@H]1C(O)=C(C(N)=O)C(=O)[C@@]2(O)C(O)=C3C(=O)c4c(O)ccc(Cl)c4[C@@H](O)[C@H]3C[C@@H]12 [DMC, demeclocycline]"
number = 8.51

[[record]]
compound = "C=C1c2cccc(O)c2C(=O)C2=C(O)[C@]3(O)C(=O)C(C(N)=O)=C(O)[C@@H](N(C)C)[C@@H]3[C@@H](O)[C@H]12 [MTC, Methacycline]"
number = 8.40

[[record]]
compound = "CN(C)c1cc(NC(=O)CNC(C)(C)C)c(O)c2c1C[C@H]1C[C@H]3[C@H](N(C)C)C(O)=C(C(N)=O)C(=O)[C@@]3(O)C(O)=C1C2=O [TIC, tigecycline]"
number = 9.98


Sure, the documented pKd for C[C@H]1c2cccc(O)c2C(=O)C2=C(O)[C@]3(O)C(=O)C(C(N)=O)=C(O)[C@@H](N(C)C)[C@@H]3[C@@H](O)[C@@H]21 [DC, doxycycline] is 9.60

Sure, the documented pKd for CN(C)c1ccc(O)c2c1C[C@H]1C[C@H]3[C@H](N(C)C)C(O)=C(C(N)=O)C(=O)[C@@]3(O)C(O)=C1C2=O [MC, minocycline] is 8.51

Sure, the documented pKd for CN(C)[C@@H]1C(O)=C(C(N)=O)C(=O)[C@@]2(O)C(O)=C3C(=O)c4c(O)cccc4[C@@](C)(O)[C@H]3[C@H](O)[C@@H]12 [OTC, oxytetracycline] is 8.75

Sure, the documented pKd for CN(C)[C@@H]1C(O)=C(C(N)=O)C(=O)[C@@]2(O)C(O)=C3C(=O)c4c(O)cccc4[C@@](C)(O)[C@H]3C[C@@H]12 [TC, tetracycline] is 6.11
